- target desc: F protein of RSV strain A2 (infectious virus) (human respiratory syncytial virus …, UniProt P03420 26-574)
- Sequence (P03420 26-574): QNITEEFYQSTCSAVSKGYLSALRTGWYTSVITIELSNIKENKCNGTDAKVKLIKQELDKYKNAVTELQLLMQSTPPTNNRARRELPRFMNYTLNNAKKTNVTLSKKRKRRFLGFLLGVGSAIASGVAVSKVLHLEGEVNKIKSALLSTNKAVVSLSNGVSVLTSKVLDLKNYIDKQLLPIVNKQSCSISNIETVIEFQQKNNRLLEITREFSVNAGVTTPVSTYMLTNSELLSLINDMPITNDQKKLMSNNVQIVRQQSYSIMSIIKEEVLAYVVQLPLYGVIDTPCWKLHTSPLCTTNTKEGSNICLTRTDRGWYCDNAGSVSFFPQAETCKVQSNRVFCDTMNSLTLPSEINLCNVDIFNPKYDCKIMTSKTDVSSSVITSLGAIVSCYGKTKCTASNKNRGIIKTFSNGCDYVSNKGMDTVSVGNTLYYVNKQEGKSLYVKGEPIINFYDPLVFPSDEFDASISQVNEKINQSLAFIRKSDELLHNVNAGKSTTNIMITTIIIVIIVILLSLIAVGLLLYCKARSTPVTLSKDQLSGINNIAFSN
- assay info: cell-based or functional assay
measured metric: Neutralization IC50, plaque-reduction assay

Query: Value lookup for Neutralization IC50, plaque-reduction assay; key = hRSV97 (antibody, V domains shown) VH: EVQLVESGGTLVQPGRSLRLSCAASGFNFEEYAMHWVRQVPGKGLEWVARINWNGGIIGYADSVKGRFTISRDNAKKSLYLQMNSLRTDDSALYYCGKDVFWAVAGTGGPIDSWGQGTLVTVSS VL: DIVMTQSPSSLSASIGDRVTISCRASRDISNYLAWYQQKSGKVPKLLIYAASTLESGVPSRFSGSGSGTDFTLTISSLQPEDVATYYCQNYNSAQMCSFGQGPSLEIK
Result: 2.23 µg/mL
